# System: HL-60
# Method Notes: Antioxidant activity in human HL60 cells assessed as inhibition of TPA-stimulated hydrogen peroxide induced DCFH-DA oxidation by fluorometric microplate assay
# Format: functional, cell-based
Outcome Measure: IC50 (µM)

INSERT INTO assay_data (compound, value_modifier, test_result) VALUES
  ('C/C=C(\C)C(=O)O[C@H]1c2cc(OC)c(OC)c(OC)c2-c2c(cc3c(c2OC)OCO3)C[C@H](C)[C@]1(C)O', '>', 116),
  ('C/C=C(\C)C(=O)Oc1c(OC)c(OC)cc2c1-c1c(cc(OC)c(OC)c1OC)C[C@](C)(O)[C@@H](C)C2', '>', 125),
  ('C/C=C(/C)C(=O)Oc1c(OC)c(OC)cc2c1-c1c(cc(OC)c(OC)c1OC)CC(C)(O)C(C)C2 (centres undefined)', '=', 81.5),
  ('COc1cc2c(c(OC)c1OC)-c1c(cc3c(c1OC)OCO3)[C@H](OC(=O)c1ccccc1)[C@@](C)(O)[C@@H](C)C2', '=', 38.2),
  ('O=C1O[C@H]([C@@H](O)CO)C(O)=C1O', '=', 10.2),
  ('COc1cc2c(c(O)c1OC)-c1c(cc(OC)c(OC)c1OC)CC(C)C(C)C2 (centres undefined)', '>', 155),
  ('Cc1c(C)c2c(c(C)c1O)CCC(C)(C(=O)O)O2 (centres undefined)', '=', 3.6),
  ('C=C1[C@H](C)Cc2cc3c(c(OC)c2-c2c(cc4c(c2OC)OCO4)[C@H]1OC(=O)c1ccccc1)OCO3', '=', 2.8),
  ('CC(Cc1ccc(O)c(O)c1)C(C)Cc1ccc(O)c(O)c1 (centres undefined) [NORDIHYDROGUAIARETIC ACID]', '=', 2.3);
